Tested on: CCRIS mutagenicity, Ames/micronucleus/aberration tests
Assay: CCRIS mutagenicity studies
Settings: End Point: IN VITRO CHROMOSOMAL ABERRATIONS; Test System: CHL CELLS; Metabolic Activation: RAT, LIVER, S-9, SODIUM PHENOBARBITAL AND 5,6-BENZOFLAVONE
Calls of active or inactive are those of the source. The rule behind the calls is not given here.
Form entry, call: pick from yes (1) for active, no (0) for inactive

>>> assigned_class("OCC1CO1 (stereo unspecified)")
"yes (1)"
>>> assigned_class("c1ccc2ncccc2c1")
"yes (1)"
>>> assigned_class("NNc1ccccc1")
"yes (1)"

Look up the recorded call for CCOC(=O)CCBr in this test.
yes (1)

Look up the recorded call for FC(F)Cl in this test.
no (0)

----------
System: CCRIS mutagenicity, Ames/micronucleus/aberration tests
Experiment: CCRIS mutagenicity studies
Details: Test System: AMES SALMONELLA TYPHIMURIUM; Strain/Indicator: TA100; Metabolic Activation: RAT, LIVER, S-9, AROCLOR 1254 (30%); Method: PREINCUBATION
Calls of active or inactive are those of the source. No rule for the calls is given here.
Form entry, call: pick from Y for active, N for inactive

>>> assigned_class("CC(CC(=O)O)C(=O)O (stereo unspecified)")
"N"
>>> assigned_class("CC(C)(Cl)[N+](=O)[O-]")
"N"
>>> assigned_class("Clc1cc2c3nc4[n-]c(nc5nc(nc6nc(nc([n-]3)c2c(Cl)c1Cl)-c1c(Cl)c(Cl)c(Cl)c(Cl)c1-6)-c1c(Cl)c(Cl)c(Cl)c(Cl)c1-5)c1c(Cl)c(Cl)c(Cl)c(Cl)c41.[Cu+2]")
"N"
>>> assigned_class("COc1ccc(C)cc1N")
"Y"

Look up the recorded call for COc1ccc(N)c(C)c1 in this test.
N

Look up the recorded call for COc1cc(N)ccc1C in this test.
Y

----------
Tested on: CCRIS mutagenicity, Ames/micronucleus/aberration tests
Experiment: CCRIS mutagenicity studies
Conditions: Test System: AMES SALMONELLA TYPHIMURIUM; Strain/Indicator: TA100; Metabolic Activation: RAT, LIVER, S-9, PCB; Method: PREINCUBATION
Calls of active or inactive are those of the source. No rule for the calls is given here.
Form entry, call: pick from TRUE for active, FALSE for inactive

Completed entries (count: 3):
>>> assigned_class("O=C1c2ccccc2C(=O)c2c(O)c(O)cc(O)c21")
"FALSE"
>>> assigned_class("O=[N+]([O-])c1ccc(Nc2ncnc3c2ncn3-c2ccc([N+](=O)[O-])cc2)cc1")
"FALSE"
>>> assigned_class("CNc1ccc2ncc(C)nc2c1C")
"TRUE"

# next compound below
Look up the recorded call for COC(=O)c1c2c(c3ccccc3c1O)OC(C)(C)C=C2 in this test.
TRUE

----------
Test system: CCRIS mutagenicity, Ames/micronucleus/aberration tests
Assay: CCRIS mutagenicity studies
Details: Test System: Mouse lymphoma; Strain/Indicator: L5178Y (tk+/tk-); Metabolic Activation: Rat, Liver, S-9, Aroclor 1254; Method: Suspension/plate
Active and inactive are the calls of the source. The rule behind the calls is not given here.
Form entry, call: pick from active, inactive

Completed entries (count: 8):
>>> assigned_class("C=C1C[C@@H]2CC[C@]34C[C@@H]5O[C@@H]6[C@H](O[C@H]7CC[C@H](CC(=O)O[C@@H]8[C@H](C)[C@@H]9O[C@@H]%10C[C@]%11(C[C@@H]%12O[C@@]%13(C[C@H](C)[C@@H]%12O%11)C[C@H](C)[C@@H]%11O[C@@H]([C@@H](O)C[C@H](O)CO)C[C@H]%11O%13)O[C@@H]%10C[C@@H]9O[C@H]8C[C@@H]8O[C@H](CC[C@@H]1O2)C[C@H](C)C8=C)O[C@@H]7[C@H]6O3)[C@H]5O4")
"active"
>>> assigned_class("C[N+](=O)[O-]")
"inactive"
>>> assigned_class("CCN(CC)c1ccc(C(=C2C=CC(=[N+](CC)CC)C=C2)c2ccc(N(CC)CC)cc2)cc1")
"inactive"
>>> assigned_class("CN(C)c1ccc(/C=C/c2ccccc2)cc1")
"active"
>>> assigned_class("CC(C)CCC[C@@H](C)[C@H]1CC[C@H]2[C@@H]3C[C@@H]4O[C@@]45C[C@@H](O)CC[C@]5(C)[C@H]3CC[C@]12C")
"inactive"
>>> assigned_class("Cl[Si](Cl)Cl")
"inactive"
>>> assigned_class("O=c1cc(-c2ccc(O)cc2)oc2cc(O)cc(O)c12")
"active"
>>> assigned_class("Oc1ccccc1-c1ccccc1")
"active"

Look up the recorded call for CN(CC(N)=O)C(=O)N(CCCl)N=O in this test.
active

Look up the recorded call for COc1cc2c(cc1O)CC[C@@H]1[C@@H]2CC[C@]2(C)[C@@H](O)CC[C@@H]12 in this test.
active

Look up the recorded call for C=C(C)C(=O)OCCOC(=O)C(=C)C in this test.
active

These data points were gathered from PubChem BioAssay AID1259407.
